Experiment: qHTS of pediatric cancer cell lines to identify multiple opportunities for drug repurposing: Primary screen for NB-EBc1 cells (AID 1347095)
Conditions: NB-EBc1 neuroblastoma viability, CellTiter-Glo luminescence, 48 h; series mostly up to 46 µM
Protocol: Drug repurposing or repositioning has been offered as a strategy for drug development in oncology programs. This approach has special potential for childhood cancers and other rare or orphan diseases, where the expected return on new drug development has been a disincentive to pharmaceuticals. […] We employed a titration-based paradigm (quantitative high-throughput screening or qHTS), where all compounds were tested at multiple concentrations for their effect on cell viability. […]
Records with an inconclusive call do not appear. Activity calls are given as the source filed them. Calls follow the shape of the dose curve; as a rule, active = well fitted cell-killing curve with a large enough effect; inconclusive = small, poorly fitted or top-dose-only effect; inactive = no such curve, though single readings can be large or run the other way.
measured-endpoint: outcome

Worked set:
compound | measured-endpoint | measurement
CN1C(=O)CC[C@H]1c1cccnc1 | outcome | inactive
CC(=O)Oc1cc(C(C)C)c(OCCN(C)C)cc1C | outcome | inactive
CC1=NS(=O)(=O)c2cc(Cl)ccc2N1 | outcome | inactive
CCN(CC)CCCN(c1ccccc1)C1Cc2ccccc2C1 | outcome | inactive
CC(C)(C)NCC(O)c1cc(O)cc(O)c1 (stereo unspecified) | outcome | inactive

I need outcome for every entry listed below, if you could help.
1. CCCCOCCOCCOCc1cc2c(cc1CCC)OCO2
2. CNC1(C)C2CCC(C2)C1(C)C (stereo unspecified)
3. CN(C)C(=O)Oc1ccc[n+](C)c1
4. CCCN(CCC)CCc1cccc2c1CC(=O)N2

Reply:
inactive
inactive
inactive
inactive

I need outcome for every entry listed below, if you could help.
1. O=C(O)CP(=O)(O)O
2. CN(C)CCOC(=O)COc1ccc(Cl)cc1
3. COC(=O)[C@@H](N)Cc1ccc(O)c(O)c1
4. Cc1scc2c1N(C(=O)CN1CCN(C)CC1)c1ccccc1NC2=O
5. CC(C)NCC(O)c1cc(O)cc(O)c1 (stereo unspecified)
6. NC(=Nc1ccccc1)Nc1ccccc1
7. CCCN1C[C@H](CSC)C[C@@H]2c3cccc4[nH]cc(c34)C[C@H]21
8. CCN(CC)CC(=O)Nc1c(C)cccc1C

Reply:
inactive
inactive
inactive
inactive
inactive
inactive
inactive
inactive

I need outcome for every entry listed below, if you could help.
1. COc1cc(Cc2cnc(N)nc2N)cc(OC)c1OC
2. OC(CCN1CCCCC1)(c1ccccc1)C1CCCCC1 (stereo unspecified)
3. C[C@]12C=CC(=O)C=C1CC[C@H]1[C@@H]3C[C@@H](O)[C@](O)(C(=O)CO)[C@@]3(C)C[C@H](O)[C@@]12F
4. CCO/C([O-])=N/c1c[n+](N2CCOCC2)no1
5. COc1ccc([C@@H]2Sc3ccccc3N(CCN(C)C)C(=O)[C@@H]2OC(C)=O)cc1
6. CCCCNC(=O)NS(=O)(=O)c1ccc(C)cc1

Reply:
1: inactive; 2: inactive; 3: inactive; 4: inactive; 5: inactive; 6: inactive
